SYSTEM: UniProtKB P33261
Sequence (P33261 whole entry): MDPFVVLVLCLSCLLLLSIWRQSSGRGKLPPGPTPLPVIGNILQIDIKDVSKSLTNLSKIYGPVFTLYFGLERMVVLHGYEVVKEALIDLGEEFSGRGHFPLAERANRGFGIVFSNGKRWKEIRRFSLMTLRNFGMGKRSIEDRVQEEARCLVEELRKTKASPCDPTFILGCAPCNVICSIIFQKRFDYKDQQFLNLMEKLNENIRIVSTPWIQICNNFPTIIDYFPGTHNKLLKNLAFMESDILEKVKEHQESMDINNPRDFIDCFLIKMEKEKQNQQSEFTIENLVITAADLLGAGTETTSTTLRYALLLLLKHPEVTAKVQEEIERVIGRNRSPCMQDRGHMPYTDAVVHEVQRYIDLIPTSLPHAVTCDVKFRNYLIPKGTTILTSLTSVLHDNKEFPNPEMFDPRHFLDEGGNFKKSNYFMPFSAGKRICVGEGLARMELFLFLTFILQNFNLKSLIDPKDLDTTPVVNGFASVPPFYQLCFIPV
ASSAY PROTOCOL: Inhibition of recombinant CYP2C19 (unknown origin) by fluorescence-based assay
pIC50: −log10 of the molar value.
QUANTITY: pIC50

- SMILES STR: "CCn1nc(C(C)(C)C)cc1Nc1nc(-c2ccc(-n3cnc(C)c3)c(F)c2)cs1"
  SYSTEM: "UniProtKB P33261"
  ASSAY VALUE: 4.09

----------
ASSAY PROTOCOL: Ratio of drug level in brain to plasma in CD1 mouse at 5 mg/kg administered via oral gavage measured after 4 hrs by HPLC/MS/MS analysis
Type: ADME, organism-based
ASSAY CONDITIONS: read-out: BPR
QUANTITY: Kp at 4 h

- SMILES STR: "CCn1nc(C(C)(C)C)cc1Nc1nc(-c2ccc(-n3cnc(C)c3)c(F)c2)cs1"
  ASSAY VALUE: 0.53

----------
ASSAY PROTOCOL: Clearance in CD1 mouse at 1 mg/kg, iv administered as single dose by HPLC/MS/MS analysis
Format: ADME, organism-based
ASSAY CONDITIONS: in vivo
QUANTITY: clearance (mL/min/kg)

- SMILES STR: "CCn1nc(C(C)(C)C)cc1Nc1nc(-c2ccc(-n3cnc(C)c3)c(F)c2)cs1"
  ASSAY VALUE: 33.5

----------
SYSTEM: Gamma-secretase
ASSAY PROTOCOL: Modulation of gamma-secretase in human SH-SY5Y cells overexpressing wild-type human APP751 assessed as inhibition of Abeta42 level after 24 hrs by ELISA
pIC50: −log10 of the molar value.
Recorded pIC50 for the following molecules
QUANTITY: pIC50

- MOLECULE: "Cc1cn(-c2ccc(-c3csc(Nc4c5c(nn4C(C)(C)C)CCCC5)n3)cc2F)cn1"
  QUANTITY: "pIC50"
  RESULT OPERATOR: "="
  ASSAY VALUE: 6.67
- MOLECULE: "CCn1nc2c(c1Nc1nc(-c3ccc(-n4cnc(C)c4)c(F)c3)cs1)C(C)CC2(C)C (stereo not given)"
  QUANTITY: "pIC50"
  RESULT OPERATOR: "="
  ASSAY VALUE: 7.31
- MOLECULE: "CCn1nc(C(C)C)cc1Nc1nc(-c2ccc(-n3cnc(C)c3)c(F)c2)cs1"
  QUANTITY: "pIC50"
  RESULT OPERATOR: "="
  ASSAY VALUE: 6.40
- MOLECULE: "COCCn1nc2c(c1Nc1nc(-c3ccc(-n4cnc(C)c4)c(F)c3)cs1)CCCC2"
  QUANTITY: "pIC50"
  RESULT OPERATOR: "="
  ASSAY VALUE: 6.57
- MOLECULE: "Cc1cn(-c2ccc(-c3csc(Nc4[nH]nc5c4CCCC5)n3)cc2F)cn1"
  QUANTITY: "pIC50"
  RESULT OPERATOR: "<"
  ASSAY VALUE: 6.00
- MOLECULE: "Cc1cn(-c2ccc(-c3csc(Nc4c5c(nn4CC(F)(F)F)CCCC5)n3)cc2F)cn1"
  QUANTITY: "pIC50"
  RESULT OPERATOR: "="
  ASSAY VALUE: 6.75
- MOLECULE: "Cc1cn(-c2ccc(-c3csc(Nc4c5c(nn4C4CCOCC4)CCCC5)n3)cc2F)cn1"
  QUANTITY: "pIC50"
  RESULT OPERATOR: "="
  ASSAY VALUE: 6.12
- MOLECULE: "Cc1cn(-c2ccc(-c3csc(Nc4c5c(nn4C(C)C)CCCC5)n3)cc2F)cn1"
  QUANTITY: "pIC50"
  RESULT OPERATOR: "="
  ASSAY VALUE: 6.71
- MOLECULE: "CCn1nc2c(c1Nc1nc(-c3ccc(-n4cnc(C)c4)c(F)c3)cs1)CCCCC2"
  QUANTITY: "pIC50"
  RESULT OPERATOR: "="
  ASSAY VALUE: 6.94
- MOLECULE: "Cc1cn(-c2ccc(-c3csc(Nc4c5c(nn4CCN4CCCCC4)CCCC5)n3)cc2F)cn1"
  QUANTITY: "pIC50"
  RESULT OPERATOR: "="
  ASSAY VALUE: 6.32
- MOLECULE: "Cc1cn(-c2ccc(-c3csc(Nc4c5c(nn4C(C)(C)C)CCC5)n3)cc2F)cn1"
  QUANTITY: "pIC50"
  RESULT OPERATOR: "="
  ASSAY VALUE: 6.76
- MOLECULE: "Cc1cn(-c2ccc(-c3csc(Nc4c5c(nn4C4CCOC4)CCCC5)n3)cc2F)cn1 (stereo not given)"
  QUANTITY: "pIC50"
  RESULT OPERATOR: "="
  ASSAY VALUE: 6.54
- MOLECULE: "Cc1cn(-c2ccc(-c3csc(Nc4c5c(nn4C4CCC4)CCC5)n3)cc2F)cn1"
  QUANTITY: "pIC50"
  RESULT OPERATOR: "="
  ASSAY VALUE: 7.04
- MOLECULE: "Cc1cn(-c2ccc(-c3csc(Nc4c5c(nn4CCN4CCOCC4)CCCC5)n3)cc2F)cn1"
  QUANTITY: "pIC50"
  RESULT OPERATOR: "<"
  ASSAY VALUE: 6.00
- MOLECULE: "Cc1cn(-c2ccc(-c3csc(Nc4c5c(nn4CCO)CCC5)n3)cc2F)cn1"
  QUANTITY: "pIC50"
  RESULT OPERATOR: "<"
  ASSAY VALUE: 6.00
- MOLECULE: "Cc1cn(-c2ccc(-c3csc(Nc4c5c(nn4C)CCCC5)n3)cc2F)cn1"
  QUANTITY: "pIC50"
  RESULT OPERATOR: "="
  ASSAY VALUE: 6.68
- MOLECULE: "Cc1cn(-c2ccc(-c3csc(Nc4c5c(nn4C)CCC5)n3)cc2F)cn1"
  QUANTITY: "pIC50"
  RESULT OPERATOR: "<"
  ASSAY VALUE: 6.00
- MOLECULE: "Cc1cn(-c2ccc(-c3csc(Nc4c5c(nn4CC(F)(F)F)CCC5)n3)cc2F)cn1"
  QUANTITY: "pIC50"
  RESULT OPERATOR: "="
  ASSAY VALUE: 7.03
- MOLECULE: "Cc1cn(-c2ccc(-c3csc(Nc4c5c(nn4CCO)CCCC5)n3)cc2F)cn1"
  QUANTITY: "pIC50"
  RESULT OPERATOR: "="
  ASSAY VALUE: 6.44
- MOLECULE: "CCn1nc2c(c1Nc1nc(-c3ccc(-n4cnc(C)c4)c(F)c3)cs1)CCC2"
  QUANTITY: "pIC50"
  RESULT OPERATOR: "="
  ASSAY VALUE: 7.39

----------
ASSAY PROTOCOL: Stability in rat liver microsomes assessed as compound remaining at 1 uM incubated for 30 mins
Format: ADME, Microsome
ASSAY CONDITIONS: read-out: Stability

- SMILES STR: "CCn1nc(C(C)(C)C)cc1Nc1nc(-c2ccc(-n3cnc(C)c3)c(F)c2)cs1"
  remaining at 0.5 h, 1 µM, %: 64

----------
ASSAY PROTOCOL: Ratio of drug level in brain to plasma in CD1 mouse at 1 mg/kg, iv administered as single dose measured after 1 hr by HPLC/MS/MS analysis
Type: ADME, organism-based
ASSAY CONDITIONS: read-out: BPR

- SMILES STR: "CCn1nc(C(C)(C)C)cc1Nc1nc(-c2ccc(-n3cnc(C)c3)c(F)c2)cs1"
  Kp at 1 h: 0.64

----------
SYSTEM: Cytochrome P450 3A4 (Homo sapiens)
Sequence (P08684 whole entry): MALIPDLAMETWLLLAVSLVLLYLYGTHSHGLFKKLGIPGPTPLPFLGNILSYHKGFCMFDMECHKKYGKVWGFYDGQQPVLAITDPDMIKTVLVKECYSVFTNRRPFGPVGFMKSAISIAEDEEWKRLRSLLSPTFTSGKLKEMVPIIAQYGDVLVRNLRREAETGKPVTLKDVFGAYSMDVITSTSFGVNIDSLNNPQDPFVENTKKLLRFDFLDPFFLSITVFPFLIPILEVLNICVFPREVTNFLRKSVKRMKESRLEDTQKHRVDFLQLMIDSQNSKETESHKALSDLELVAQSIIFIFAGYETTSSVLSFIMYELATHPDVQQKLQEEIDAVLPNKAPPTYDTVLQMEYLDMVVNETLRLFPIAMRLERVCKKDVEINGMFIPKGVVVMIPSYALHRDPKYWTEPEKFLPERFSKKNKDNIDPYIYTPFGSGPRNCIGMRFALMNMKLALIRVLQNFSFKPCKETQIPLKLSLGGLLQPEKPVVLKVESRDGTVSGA
ASSAY PROTOCOL: Inhibition of recombinant CYP3A4 (unknown origin) by fluorescence-based assay
QUANTITY: IC50 (µM)

- SMILES STR: "CCn1nc(C(C)(C)C)cc1Nc1nc(-c2ccc(-n3cnc(C)c3)c(F)c2)cs1"
  QUANTITY: "IC50"
  ASSAY VALUE: 16

----------
ASSAY PROTOCOL: Half life in CD1 mouse at 5 mg/kg administered via oral gavage by HPLC/MS/MS analysis
Type: ADME, organism-based
ASSAY CONDITIONS: in vivo

- SMILES STR: "CCn1nc(C(C)(C)C)cc1Nc1nc(-c2ccc(-n3cnc(C)c3)c(F)c2)cs1"
  READOUT UNIT: "h"
  half-life: 6

----------
ASSAY PROTOCOL: Stability in mouse liver microsomes assessed as compound remaining at 1 uM incubated for 30 mins
Assay type: ADME, Microsome
ASSAY CONDITIONS: read-out: Stability

- SMILES STR: "CCn1nc(C(C)(C)C)cc1Nc1nc(-c2ccc(-n3cnc(C)c3)c(F)c2)cs1"
  remaining at 0.5 h, 1 µM: "95%"
